// data source = the supplement of paper PMC9170038

tested on: MS2 coat protein; experiment: apparent KD of MS2 coat protein; designed switch direction (-1 OFF switch, 1 ON switch): 1; higher = weaker reporter binding; settings: Eterna round: R95; input ligand: microRNA oligo, concentration not stated
observable: apparent KD of MS2 coat protein (nM)
Form entry: value (nM) — number only.

>  <biosequence>
AGUCCAGCAUAAGCUGGACAAAAGCAUGUACAUGAGGAUCACCCAUGUUCAUGUACAAGCUUUUUGCUCGUCAAAAG [Mat - hsa-mir-208a - Mod of JL - 71] (puzzle: Sensor for hsa-mir-208a)

>  <apparent KD of MS2 coat protein (nM)>
22.6

$$$$

So what's the measured apparent KD of MS2 coat protein for this one? UCAAGCGAGAGGCUCGUCUUAUGCAAGGAACAUGAGGAUCACCCAUGUGAGGGACGAUUGAGUUAGAUGGAAUGGAG [JR_SHM208A_Sub032] (puzzle: Sensor for hsa-mir-208a)
136

Any idea what its apparent KD of MS2 coat protein is? The sequence is CGUCCGGCCUGUGCUGGCCGGUAGCUUGUACAUGAGGAUCACCCAUGUUCAUGUGCAGGCUUUUUGCUCGUCUUGUG [salish99_mir208a_014] (puzzle: Sensor for hsa-mir-208a)
29.6

Suppose we examine the sequence UGUCCAGCCUGAGCUGGACAAAAGCAUGUACAUGAGGAUCACCCAUGUUCAUGUACAAGCUUUUUGCUCGUCUUACA [salish99_208a_r3_080] (puzzle: Sensor for hsa-mir-208a) ; what apparent KD of MS2 coat protein value has been reported?
15.2

State the recorded apparent KD of MS2 coat protein for this entry: AAAGUACAUGAGGAUCACCCAUGUAAAAGACUCACAGGAUAUGCUUCUUGUGUACAAGCUGCAGAAGGGUGAAAAG [Oraes] (puzzle: Same State 1)
55.9

Dear colleague, I am looking for the recorded apparent KD of MS2 coat protein of the following sequence: AGGGAGGAGGCUGAGGAUAUCGUAAGGAGGACAUGAGGAUCACCCAUGUGUAUAGGAUUGGAGGACGAGAAGGCAGAGGAGUGGG [JR_SS2_Sub050] (puzzle: Same State 2)
26.6

Requested read-out: apparent KD of MS2 coat protein. Entry: AUAAGUUCGAUGCUCGUCUCUCCGUACAAACAUGAGGAUCACCCAUGUGAUUGGGCAAUAGCCCAAUCAGUAUGACC [Gemaa] (puzzle: Sensor for hsa-mir-208a)
26

Please look up its apparent KD of MS2 coat protein: AGUCCAGCGAAAGCUGGACAAAGGCAUGUACAUGAGGAUCACCCAUGUUCAUGUACAAGCUUUUUGCUCGUCUUAAA [JL mod - D95 - 3] (puzzle: Sensor for hsa-mir-208a)
14

Using the record for GAUUAACAUGAGGAUCACCCAUGUCGUUUUAUGGGAGGAUAUACGUGGACCGUAGUCCGCGUAGAAGGCCUAAUUG [JL-ss1-3.23 janelle mod] (puzzle: Same State 1) , report its apparent KD of MS2 coat protein.
97.3
